Molecular target: Msn1 (Saccharomyces cerevisiae)
Sequence: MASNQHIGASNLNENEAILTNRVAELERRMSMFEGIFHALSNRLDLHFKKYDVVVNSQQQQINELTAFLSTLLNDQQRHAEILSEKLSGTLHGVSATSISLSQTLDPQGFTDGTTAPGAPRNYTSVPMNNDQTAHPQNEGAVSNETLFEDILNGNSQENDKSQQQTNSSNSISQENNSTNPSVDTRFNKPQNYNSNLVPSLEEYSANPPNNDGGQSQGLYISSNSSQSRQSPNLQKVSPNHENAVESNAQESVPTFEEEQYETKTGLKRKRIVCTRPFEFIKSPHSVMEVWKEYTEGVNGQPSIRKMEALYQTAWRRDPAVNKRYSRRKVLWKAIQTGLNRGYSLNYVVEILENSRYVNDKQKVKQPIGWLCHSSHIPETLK
Conditions: 200 nM
measured property: binding signal (PBM E-score (-0.5 to 0.5))
Answers are plain numbers.

Known binding signal (PBM E-score (-0.5 to 0.5)) results, listed for orientation:
• GGGACAAA (double strand) [8-mer GGGACAAA] = 0.496
• AGGACAAA (double strand) [8-mer AGGACAAA] = 0.498
• AAAATGTC (double strand) [8-mer AAAATGTC] = 0.491
• AATGTCCC (double strand) [8-mer AATGTCCC] = 0.496
• GGACAAAA (double strand) [8-mer GGACAAAA] = 0.494
• AGGACATA (double strand) [8-mer AGGACATA] = 0.494
• ATATGTCC (double strand) [8-mer ATATGTCC] = 0.496
• AATGTCCT (double strand) [8-mer AATGTCCT] = 0.496
• AAATGTCC (double strand) [8-mer AAATGTCC] = 0.498
• ATGTCCTA (double strand) [8-mer ATGTCCTA] = 0.497

Look at each sequence and report its binding signal (PBM E-score (-0.5 to 0.5)).
1. GGACAAAC (double strand) [8-mer GGACAAAC]
2. ATTTGTCC (double strand) [8-mer ATTTGTCC]

Response:
[0.491, 0.498]

Look at each sequence and report its binding signal (PBM E-score (-0.5 to 0.5)).
1. AATGTCCA (double strand) [8-mer AATGTCCA]
2. GAATGTCC (double strand) [8-mer GAATGTCC]
3. TGGACAAA (double strand) [8-mer TGGACAAA]

Response:
[0.493, 0.494, 0.493]

---

Biological target: Gcr1 (Saccharomyces cerevisiae) (UniProt P07261)
Sequence: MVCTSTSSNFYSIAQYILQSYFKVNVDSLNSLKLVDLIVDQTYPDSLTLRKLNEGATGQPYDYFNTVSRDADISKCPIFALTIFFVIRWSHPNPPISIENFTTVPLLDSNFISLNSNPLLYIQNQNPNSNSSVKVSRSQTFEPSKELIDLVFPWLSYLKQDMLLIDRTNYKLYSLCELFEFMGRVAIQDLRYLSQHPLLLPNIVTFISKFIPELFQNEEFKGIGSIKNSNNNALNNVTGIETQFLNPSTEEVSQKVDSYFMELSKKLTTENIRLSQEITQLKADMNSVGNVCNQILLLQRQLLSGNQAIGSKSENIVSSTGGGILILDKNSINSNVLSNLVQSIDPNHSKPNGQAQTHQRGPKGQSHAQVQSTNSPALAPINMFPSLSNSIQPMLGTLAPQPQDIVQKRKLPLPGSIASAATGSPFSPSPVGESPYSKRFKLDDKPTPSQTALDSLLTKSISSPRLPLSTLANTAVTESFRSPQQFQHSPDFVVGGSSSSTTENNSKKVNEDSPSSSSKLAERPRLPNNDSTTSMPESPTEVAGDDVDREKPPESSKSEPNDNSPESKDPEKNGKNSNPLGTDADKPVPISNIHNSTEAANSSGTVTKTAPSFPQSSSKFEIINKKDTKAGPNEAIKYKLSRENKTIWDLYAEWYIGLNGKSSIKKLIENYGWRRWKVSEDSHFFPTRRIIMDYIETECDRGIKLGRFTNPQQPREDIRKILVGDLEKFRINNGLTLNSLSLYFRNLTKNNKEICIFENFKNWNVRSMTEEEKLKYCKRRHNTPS
Conditions: 100 nM
I'd be grateful if you could share measured binding signal (PBM E-score (-0.5 to 0.5)) for these entries.
Numbers only.

Look at each sequence and report its binding signal (PBM E-score (-0.5 to 0.5)).
1. GAGCTTCC (double strand) [8-mer GAGCTTCC]
2. AGGAAGCC (double strand) [8-mer AGGAAGCC]

Response:
0.469
0.487

Look at each sequence and report its binding signal (PBM E-score (-0.5 to 0.5)).
1. GGCATCCA (double strand) [8-mer GGCATCCA]
2. GGAATCCA (double strand) [8-mer GGAATCCA]
3. GGAAGCCC (double strand) [8-mer GGAAGCCC]
4. AGCTTCCT (double strand) [8-mer AGCTTCCT]
5. GGCTTCCA (double strand) [8-mer GGCTTCCA]
6. AGCATCCT (double strand) [8-mer AGCATCCT]

Response:
1: 0.469; 2: 0.473; 3: 0.473; 4: 0.485; 5: 0.483; 6: 0.465

Look at each sequence and report its binding signal (PBM E-score (-0.5 to 0.5)).
1. GCTTCCTA (double strand) [8-mer GCTTCCTA]
2. GGAATCCC (double strand) [8-mer GGAATCCC]
3. AGGATGCC (double strand) [8-mer AGGATGCC]
4. CGGCTTCC (double strand) [8-mer CGGCTTCC]
5. GGAAGCCA (double strand) [8-mer GGAAGCCA]
6. GGATTCCA (double strand) [8-mer GGATTCCA]

Response:
0.468
0.464
0.47
0.472
0.48
0.476

Entry CAGCGTCC (double strand) [8-mer CAGCGTCC] , binding signal (PBM E-score (-0.5 to 0.5)) reported as 0.465
